TEST SYSTEM: DPP1 of U937 cells (Homo sapiens (Human))
Sequence (P53634 25-134): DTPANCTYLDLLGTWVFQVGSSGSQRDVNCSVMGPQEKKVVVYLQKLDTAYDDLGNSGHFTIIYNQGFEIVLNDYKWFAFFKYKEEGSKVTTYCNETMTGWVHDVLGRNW
Sequence (P53634 231-394): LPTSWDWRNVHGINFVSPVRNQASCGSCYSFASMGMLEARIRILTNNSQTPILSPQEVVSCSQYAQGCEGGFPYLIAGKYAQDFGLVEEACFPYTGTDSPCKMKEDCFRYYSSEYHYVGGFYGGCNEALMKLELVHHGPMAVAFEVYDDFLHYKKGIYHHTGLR
Sequence (P53634 395-463): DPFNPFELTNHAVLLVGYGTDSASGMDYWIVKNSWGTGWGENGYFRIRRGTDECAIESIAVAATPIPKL
ASSAY PROCEDURE: Activity test of inhibiting DPP1 in U937 cells
Assay type: cell-based
CONDITION LABEL: Gly-Phe-AFC probe, read-out: IC50, inhibitory activity on DPP1 of U937 cells
PROPERTY MEASURED: pIC50
In textbook form, pIC50 equals minus log to base ten of the concentration in mol/L.

Worked cases, answers included:
> print(dat)
                                   molecule                               test.system  measured.value
1  N#C[C@H](Cc1ccc(-c2ccc3nccn3c2)cc1F)NC(=O)[C@@H]1CNCCCO1 [Compound 13]  DPP1 of U937 cells (Homo sapiens (Human))            8.20
2  CN1CCC(n2ncc3ccc(-c4ccc(C[C@H](C#N)NC(=O)[C@@H]5CNCCCO5)c(F)c4)cc32)CC1 [Compound 24]  DPP1 of U937 cells (Homo sapiens (Human))            8.51
3  Cn1nc(F)c2ccc(-c3ccc(C[C@H](C#N)NC(=O)[C@@H]4CNCCCO4)c(F)c3)cc21 [Compound 18]  DPP1 of U937 cells (Homo sapiens (Human))            8.27

Query: Could you please provide reported pIC50 for N#C[C@@H](Cc1ccc(-c2cc(F)c3cn[nH]c3c2)cc1F)NC(=O)[C@@H]1CNCCCO1 [Compound 19] ? Thanks!
Response: 8.06

Query: Identify the reported pIC50 for the following entry. CC(C)n1ncc2ccc(-c3ccc(C[C@@H](C#N)NC(=O)[C@@H]4CNCCCO4)c(F)c3)cc21 [Compound 10]
Response: 8.07

Query: For the molecule N#C[C@H](Cc1ccc(-c2ccc3cnn(C4CCOCC4)c3c2)cc1F)NC(=O)[C@@H]1CNCCCO1 [Compound 12] , give its measured pIC50 value.
Response: 8.74

Query: Identify measured pIC50 corresponding to Cn1nnc2ccc(-c3ccc(C[C@@H](C#N)NC(=O)[C@@H]4CNCCCO4)cc3)cc21 [Compound 4]
Response: 8.88

---

ASSAY PROCEDURE: Rat tissue (bone marrow) distribution
Assay type: in vivo
CONDITION LABEL: SD rats, plasma, 5 mg/kg single oral administration; read-out: Plasma Peak concentration Cmax
PROPERTY MEASURED: Cmax (µM)
Hi! Could you send only the number? It should be in µM, unit omitted.

Query: Supply measured Cmax of Cn1ncc2ccc(-c3ccc(C[C@@H](C#N)NC(=O)[C@@H]4CNCCCO4)c(F)c3)cc21 [Compound 8] in your reply.
Response: 1.02

---

TEST SYSTEM: Recombinant human cathepsin C/DPP1
ASSAY PROCEDURE: Inhibition effect test of DPP1 enzyme activity
CONDITION LABEL: recombinant human cathepsin C/DPP1, Gly-Arg-AMC substrate 12.5 μM, 25° C. 60 minutes; read-out: IC50, inhibitory activity on DPP1 enzyme
Lab note: cut-off is 5 nM. Strictly less in IC50 is yes (1). Exactly 5 nM or more is no (0).

Below, 6 compounds whose answers are already recorded.
> print(dat)
                            compound.smiles  assigned.class
1  CC(C)n1ncc2ccc(-c3ccc(C[C@@H](C#N)NC(=O)[C@@H]4CNCCCO4)c(F)c3)cc21         yes (1)
2  N#C[C@@H](Cc1ccc(-c2cnc3cc[nH]c3c2)cc1F)NC(=O)[C@@H]1CNCCCO1          no (0)
3  CC(C)n1ncc2ccc(-c3ccc(C[C@@H](C#N)NC(=O)[C@@H]4CNCCCO4)cc3)cc21          no (0)
4  N#C[C@@H](Cc1ccc(-c2cc(F)c3cn[nH]c3c2)cc1F)NC(=O)[C@@H]1CNCCCO1         yes (1)
5  N#C[C@H](Cc1ccc(-c2ccc3cnn(C4CCOCC4)c3c2)cc1F)NC(=O)[C@@H]1CNCCCO1         yes (1)
6  Cn1ncc2ccc(-c3ccc(C[C@@H](C#N)NC(=O)[C@@H]4CNCCCO4)cc3)cc21          no (0)

Query: Given Cc1cc(-c2ccc3cnn(C)c3c2)ccc1C[C@H](C#N)NC(=O)[C@@H]1CNCCCO1 , is recorded IC50 strictly lower than 5 nM?
Response: no (0)
